# Test system: SpTbr T-box DNA-binding domain (GST fusion);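 note: protein at 200 nM in PBS on universal double-stranded arrays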
# Sequence: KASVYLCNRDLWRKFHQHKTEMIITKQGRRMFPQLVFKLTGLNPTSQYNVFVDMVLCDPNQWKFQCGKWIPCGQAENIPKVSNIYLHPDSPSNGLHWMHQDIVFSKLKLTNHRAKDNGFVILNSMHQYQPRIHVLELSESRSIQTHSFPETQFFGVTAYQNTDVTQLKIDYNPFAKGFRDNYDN
# experimental.protocol: PBM E-score of 8-mer (E-score (dimensionless, -0.5 to 0.5)); higher = stronger binding preference
# details: the construct has about 5 more residues each side
The full ranking holds about 33,000 sequences; the median of “E-score (dimensionless, -0.5 to 0.5)” is about -0.046, and the highest 2% start at about 0.36. This excerpt belongs to a sample that is enriched for the highest values.
metric: PBM E-score of 8-mer
Please give only the number in your answer, with no unit.

# input Please state recorded PBM E-score of 8-mer (tested on SpTbr T-box DNA-binding domain (GST fusion)) of GAATCAGA;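 note: protein at 200 nM in PBS on universal double-stranded arrays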
# output -0.0679

# input Please state recorded PBM E-score of 8-mer (tested on SpTbr T-box DNA-binding domain (GST fusion)) of GCCGTGAC;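 note: protein at 200 nM in PBS on universal double-stranded arrays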
# output 0.199

# input Please state recorded PBM E-score of 8-mer (tested on SpTbr T-box DNA-binding domain (GST fusion)) of CTCGGCCC;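 note: protein at 200 nM in PBS on universal double-stranded arrays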
# output -0.0368

# input Please state recorded PBM E-score of 8-mer (tested on SpTbr T-box DNA-binding domain (GST fusion)) of GGTGACAA;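 note: protein at 200 nM in PBS on universal double-stranded arrays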
# output 0.459

###

# Test system: SpTbr T-box DNA-binding domain (GST fusion);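 note: protein at 200 nM in PBS on universal double-stranded arrays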
# Sequence: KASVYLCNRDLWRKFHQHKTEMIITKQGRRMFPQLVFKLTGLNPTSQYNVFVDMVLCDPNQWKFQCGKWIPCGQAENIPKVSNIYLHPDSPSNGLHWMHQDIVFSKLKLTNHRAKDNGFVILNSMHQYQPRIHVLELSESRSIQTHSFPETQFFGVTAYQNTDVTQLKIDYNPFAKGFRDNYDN
# experimental.protocol: PBM E-score of 8-mer (E-score (dimensionless, -0.5 to 0.5)); Tbr is Tbrain of the sea star Patiria miniata (Pm) or the sea urchin Strongylocentrotus purpuratus (Sp); higher = stronger binding preference
# details: target sequence: T-box / the construct has about 5 more residues each side
Whole data set: some 33,000 sequences, median “E-score (dimensionless, -0.5 to 0.5)” near -0.046, cut for the highest 2% near 0.36. The list comes from a sample in which the highest values are over-represented; it also holds close analogues and randomly drawn sequences.
metric: PBM E-score of 8-mer
Please give only the number in your answer, with no unit.

| sequence.record | numeric.value |
| --- | --- |
| ATGCACGC | -0.0415 |

# input Which value of PBM E-score of 8-mer has been reported for AGGTGCCA in the records?
# output 0.462

# input Which value of PBM E-score of 8-mer has been reported for TACCTCTA in the records?
# output -0.164

# input Which value of PBM E-score of 8-mer has been reported for GCCCAAGC in the records?
# output -0.24

# input Which value of PBM E-score of 8-mer has been reported for AAGCGGTG in the records?
# output -0.116

# input Which value of PBM E-score of 8-mer has been reported for GACACCTC in the records?
# output 0.479

# input Which value of PBM E-score of 8-mer has been reported for AGCATCTG in the records?
# output -0.116

# input Which value of PBM E-score of 8-mer has been reported for CGATCAGC in the records?
# output 0.0172

# input Which value of PBM E-score of 8-mer has been reported for GTGCTCTA in the records?
# output -0.178

# input Which value of PBM E-score of 8-mer has been reported for CGTTAGGA in the records?
# output -0.0398
